The following compounds are shown together with reported IC50 values.
testedTarget: vanilloid receptor (Rattus norvegicus, UniProt O35433)
Construct: DRG nerve cells from the primary culture of 2 days were equilibrated; endogenous in cells
Sequence (O35433 whole entry): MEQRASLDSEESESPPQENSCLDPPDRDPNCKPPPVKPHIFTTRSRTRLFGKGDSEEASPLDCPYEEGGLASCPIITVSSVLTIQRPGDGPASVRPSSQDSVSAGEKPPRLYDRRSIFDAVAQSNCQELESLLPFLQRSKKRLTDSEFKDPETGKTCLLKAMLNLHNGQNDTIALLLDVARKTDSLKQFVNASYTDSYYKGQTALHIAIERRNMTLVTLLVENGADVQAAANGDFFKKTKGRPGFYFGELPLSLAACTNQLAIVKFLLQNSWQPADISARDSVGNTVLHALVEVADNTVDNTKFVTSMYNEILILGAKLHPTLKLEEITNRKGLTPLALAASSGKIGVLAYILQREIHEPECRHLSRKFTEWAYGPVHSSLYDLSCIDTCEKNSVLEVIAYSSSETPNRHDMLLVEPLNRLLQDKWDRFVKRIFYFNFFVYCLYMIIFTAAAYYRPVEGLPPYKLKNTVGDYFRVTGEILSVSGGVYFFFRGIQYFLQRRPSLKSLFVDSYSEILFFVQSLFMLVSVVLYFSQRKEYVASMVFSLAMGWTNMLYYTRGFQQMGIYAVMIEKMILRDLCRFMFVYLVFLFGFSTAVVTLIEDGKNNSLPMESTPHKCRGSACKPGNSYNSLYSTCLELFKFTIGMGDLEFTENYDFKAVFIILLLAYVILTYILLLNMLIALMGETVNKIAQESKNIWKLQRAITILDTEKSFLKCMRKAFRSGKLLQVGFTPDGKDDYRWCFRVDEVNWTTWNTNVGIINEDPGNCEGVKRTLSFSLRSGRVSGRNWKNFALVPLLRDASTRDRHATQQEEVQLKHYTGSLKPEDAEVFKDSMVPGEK
testDescription: 45Ca influx test (antagonist calcium uptake test) in rat DRG neurons stimulated with capsaicin
settings: neonatal SD rat DRG neurons; capsaicin 0.5 μM; 45Ca
parameter: IC50

- compound: "C[C@@H](NC(=O)c1coc(Oc2cccc(Cl)n2)n1)c1cc(F)c(NS(C)(=O)=O)c(F)c1 [Example 26]"
  experimentalResult: "> 10000 nM"
- compound: "C[C@@H](NC(=O)c1coc(-c2cccc(C(F)(F)F)c2F)n1)c1cc(F)c(NS(C)(=O)=O)c(F)c1 (stereo in doubt) [Example 79]"
  experimentalResult: "990 nM"
- compound: "Cc1ccc(C2CCCCC2)c(Oc2nc(C(=O)N[C@H](C)c3cc(F)c(NS(C)(=O)=O)c(F)c3)co2)c1 [Example 50]"
  experimentalResult: "1100 nM"
- compound: "COc1ccc(-c2nc(C(=O)N[C@H](C)c3cc(F)c(NS(C)(=O)=O)c(F)c3)co2)cc1C(F)(F)F (stereo in doubt) [Example 96]"
  experimentalResult: "1300 nM"
- compound: "CCc1cc(-c2ccc(C(=O)N[C@H](C)c3cc(F)c(NS(C)(=O)=O)c(F)c3)o2)cc(C(F)(F)F)c1 [Example 116]"
  experimentalResult: "160 nM"
- compound: "CCCc1ccc(C(F)(F)F)cc1Oc1nc(C(=O)N[C@H](C)c2cc(F)c(NS(C)(=O)=O)c(F)c2)co1 [Example 41]"
  experimentalResult: "190 nM"
- compound: "CCc1cccc(Oc2nc(C(=O)N[C@H](C)c3cc(F)c(NS(C)(=O)=O)c(F)c3)co2)c1 [Example 29]"
  experimentalResult: "280 nM"
- compound: "C[C@@H](NC(=O)c1coc(NCC2CCCCC2)n1)c1cc(F)c(NS(C)(=O)=O)c(F)c1 [Example 13]"
  experimentalResult: "1400 nM"
- compound: "COc1cc(-c2nc(C(=O)N[C@H](C)c3cc(F)c(NS(C)(=O)=O)c(F)c3)co2)cc(C(F)(F)F)c1 [Example 97]"
  experimentalResult: "1400 nM"
- compound: "CCCc1cc(C(F)(F)F)ccc1Oc1nc(C(=O)N[C@H](C)c2cc(F)c(NS(C)(=O)=O)c(F)c2)co1 [Example 33]"
  experimentalResult: "4900 nM"
- compound: "C[C@@H](NC(=O)c1coc(-c2cccc(-c3ccccc3)c2)n1)c1cc(F)c(NS(C)(=O)=O)c(F)c1 [Example 70]"
  experimentalResult: "870 nM"
- compound: "C[C@@H](NC(=O)c1csc(-c2cc(C3CC3)cc(C3CC3)c2)n1)c1cc(F)c(NS(C)(=O)=O)c(F)c1 (stereo in doubt) [Example 107]"
  experimentalResult: "3000 nM"

###

The following molecules are shown together with reported pIC50 values.
testedTarget: vanilloid receptor (Rattus norvegicus, UniProt O35433)
Construct: DRG nerve cells from the primary culture of 2 days were equilibrated; endogenous in cells
testDescription: 45Ca influx test (antagonist calcium uptake test) in rat DRG neurons stimulated with capsaicin
settings: neonatal SD rat DRG neurons; capsaicin 0.5 μM; 45Ca
pIC50: −log10 of the molar value.
parameter: pIC50

- smilesInput: "C[C@@H](NC(=O)c1coc(Oc2cc(C(F)(F)F)ccn2)n1)c1cc(F)c(NS(C)(=O)=O)c(F)c1"
  experimentalResult: "< 5.00"
- smilesInput: "C[C@@H](NC(=O)c1coc(Oc2cccc(C#N)c2)n1)c1cc(F)c(NS(C)(=O)=O)c(F)c1"
  experimentalResult: "< 5.00"
- smilesInput: "CC(C)(C)c1ccc(-c2ccc(C(=O)NCc3cc(F)c(NS(C)(=O)=O)c(F)c3)s2)cc1"
  experimentalResult: "< 5.00"
